Origin of values: PubChem BioAssay (NCI)

# Test system: SNB-19 CNS
# method: NCI-60 one-dose screen, 48 h (100 = growth as untreated, 0 = no growth, -100 = all killed)
# setup conditions: 10 µM unless noted
Compounds without any hit were thinned out: in the full panel of roughly 83,000, 20% have a hit.
Reported values of growth for individual entries
A number alone suffices; assume %.

compound | growth / %
COC(=O)/C(CCC=C(C)C)=C1\[C@@H](OC(C)=O)C[C@@]2(C)[C@H]1CC(=O)[C@H]1[C@@]3(C)CCC(N4CCCC4)[C@@H](C)[C@@H]3CC[C@@]12C (some centres undefined) | 107
C/C(=C(/c1ccc(Cl)cc1)c1ccc(OCCCN(C)C)cc1)c1ccc(Cl)cc1 | 97.3
COC(=O)C1=C(C(=O)Nc2cccnc2)C2OC1(C(Cc1ccccc1)Oc1ccccc1)C1OC21 (centres undefined) | 102

Now for another entry.
## Task Quick check: growth of COc1ccc(C2=Nc3c(N)ncnc3NC(c3cccc(Nc4ccnc5cc(C(F)(F)F)ccc45)c3)C2)cc1 (centres undefined) ?
## Result 68.2

====

# System: SK-MEL-2 melanoma
# method: NCI-60 one-dose screen, 48 h (100 = growth as untreated, 0 = no growth, -100 = all killed)
# setup conditions: 10 µM unless noted
This is part of a sample that, as a whole, favours compounds with a hit. Of some 83,000 tested, about 20% had one in any assay.
# cutoff 80% applies to growth; >= gives True, < gives False

Would you please look over these solved cases?
compound | label class
CCN(CC)CCOc1nc2c3ccc(Cl)cc3nn2c2ccccc12 | False
O[C@@H](c1cc(C(F)(F)F)nc2c(C(F)(F)F)cccc12)[C@H]1CCCCN1 | False
O=C(CBr)CN1C(=O)c2ccccc2C1=O | True
Cn1c(=O)c2c(c3ccccc31)OC(N)=C(C#N)C21C(=O)c2ccccc2C1=O | True
Cn1c(=O)c2c(nc(NC3=NS(=O)(=O)c4ccccc43)n2Cc2ccccc2)n(C)c1=O | True
O=C(O)C1CN(c2cccc(Cl)c2)N(c2cccc(Cl)c2)C1=O (stereo not given) | True
Nc1ccc([N+](=O)[O-])cc1N=C/C=C/c1ccccc1 | False
COC(=O)c1nc(-c2ccccc2)oc1S(=O)(=O)N1CCC(C(N)=O)CC1 | True

## Task Is growth for "O=C(O)c1cccc(N/C=C/C(=O)c2cc3cc(Br)ccc3oc2=O)c1" at or above 80%?
## Result True

## Task Is growth for "O=C(N/N=C/c1ccc(O)cc1O)c1ccc(Nc2ccnc(C(F)(F)F)c2)cc1" at or above 80%?
## Result False

====

# Tested on: M14 melanoma
# method: NCI-60 one-dose screen, 48 h
# setup conditions: 10 µM unless noted
The panel holds about 83,000 compounds, 20% with a hit somewhere; the sample as a whole holds those more often. Active and inactive are the calls of the source. The calls were made as follows: active = growth percent below 10; inactive = the rest.
Tick one outcome: active, inactive

smiles record | label class
Cn1cc(-c2nonc2-c2c[nH]c3ccc(F)cc23)c2cc(Br)ccc21 | inactive

## Task In this assay, the call recorded for "Cn1cc(-c2nc(-c3c[nH]c4ccncc34)cs2)c2cc(Br)ccc21" was what?
## Result active

## Task In this assay, the call recorded for "Cc1cc(N2CCN(C)CC2)nc(NCc2cc(Nc3ccnc4cc(Cl)ccc34)ccc2F)n1" was what?
## Result active

## Task In this assay, the call recorded for "NC(=S)N/N=C/c1cn(-c2ccccc2)nc1-c1cc2ccccc2oc1=O" was what?
## Result inactive
